- Type: in vitro ADME, human
- applied conditions: individual glucosides in RdGrp extract, chlorhexidine rinse
readout: Decrease of degradation in saliva after antibacterial treatment (%)
Give the value in % but do not write % after it.

COc1cc(-c2[o+]c3cc(O)cc(O)c3cc2O[C@@H]2O[C@H](CO)[C@@H](O)[C@H](O)[C@H]2O)cc(O)c1O [Pt-3-glu, Petunidin-3-O-glucoside]: 10

(Q) Using known records, supply Decrease of degradation in saliva after antibacterial treatment for OC[C@H]1O[C@@H](Oc2cc3c(O)cc(O)cc3[o+]c2-c2cc(O)c(O)c(O)c2)[C@H](O)[C@@H](O)[C@@H]1O [Dp, Delphinidin-3-O-glucoside]
(A) 30

(Q) Using known records, supply Decrease of degradation in saliva after antibacterial treatment for COc1cc(-c2[o+]c3cc(O)cc(O)c3cc2O[C@@H]2O[C@H](CO)[C@@H](O)[C@H](O)[C@H]2O)ccc1O [Pn, Peonidin-3-O-glucoside]
(A) 50

(Q) Using known records, supply Decrease of degradation in saliva after antibacterial treatment for COc1cc(-c2[o+]c3cc(O)cc(O)c3cc2O[C@@H]2O[C@H](CO)[C@@H](O)[C@H](O)[C@H]2O)cc(OC)c1O [Mv, Malvidin-3-O-glucoside]
(A) 50
